- Test system: HEK293 cells
- ASSAY EXPLANATION: HEK293 cell viability, CellTiter 96 Aqueous One Solution Cell Proliferation assay
- Format: cell-based
- CONDITIONS: Homo sapiens, HEK293, 48 h, text summary
MEASURED ENDPOINT: EC50

Q: EC50 of COc1cc(COc2c(OC)ccc3c2C(=O)OC3[C@H]2c3c(cc4c(c3OC)OCO4)CCN2C)cc(OC)c1OC (stereo partly shown) on HEK293 cells?
A: < 1 µM

----------
- System: HeLa (cervical adenocarcinoma)
- ASSAY EXPLANATION: Cell viability (cell proliferation assay), HeLa
- Type: cell-based
- CONDITIONS: Homo sapiens, 48 to 72 hr exposure
pEC50: −log10 of the molar value.
MEASURED ENDPOINT: pEC50

Q: # input molecule: COc1ccc2c(c1N)C(=O)O[C@@H]2[C@H]1c2c(cc3c(c2OC)OCO3)CCN1C ; wanted: its pEC50
A: > 7.30

----------
- Test system: HEK293 cells
- ASSAY EXPLANATION: HEK293 cell viability, CellTiter 96 Aqueous One Solution Cell Proliferation assay
- Format: cell-based
- CONDITIONS: Homo sapiens, HEK293, 48 h, read-out: EC50
pEC50: −log10 of the molar value.
MEASURED ENDPOINT: pEC50

// below: answered molecules
[
  {
    "MOLECULE": "COc1ccc2c(c1N)C(=O)O[C@@H]2[C@H]1c2c(cc3c(c2OC)OCO3)CCN1C [Compound 9a]",
    "SYSTEM": "HEK293 cells",
    "pEC50": "> 7.30"
  },
  {
    "MOLECULE": "COc1cc(COc2c(OC)ccc3c2C(=O)O[C@@H]3[C@H]2c3c(cc4c(c3OC)OCO4)CCN2C)cc(OC)c1OC [Compound 5a]",
    "SYSTEM": "HEK293 cells",
    "pEC50": 6.52
  },
  {
    "MOLECULE": "COC(=O)Nc1nc2ccc(C(=O)c3cccs3)cc2[nH]1 [Nocodazole, reference compound]",
    "SYSTEM": "HEK293 cells",
    "pEC50": "> 7.70"
  },
  {
    "MOLECULE": "COc1ccc2c(c1OC)C(=O)O[C@@H]2[C@H]1c2c(cc3c(c2OC)OCO3)CCN1C [Noscapine, noscapine, reference compound]",
    "SYSTEM": "HEK293 cells",
    "pEC50": "~5.00"
  }
]

Next:
Q: Return reported pEC50; argument: CC(=O)O[C@H]1C(=O)[C@@]2(C)[C@H]([C@H](OC(=O)c3ccccc3)[C@]3(O)C[C@H](OC(=O)[C@H](O)[C@@H](NC(=O)c4ccccc4)c4ccccc4)C(C)=C1C3(C)C)[C@]1(OC(C)=O)CO[C@@H]1C[C@@H]2O [Paclitaxel, reference compound]
A: > 7.00

FYI, the data here is from patent US20050049278A1.
